All values here come from PubChem BioAssay.

Recorded measurements of composite z-score, one per entry
TARGET OR SYSTEM: Fibroblast growth factor 10 (Homo sapiens) (UniProt O15520)
Sequence (O15520 whole entry, looked up): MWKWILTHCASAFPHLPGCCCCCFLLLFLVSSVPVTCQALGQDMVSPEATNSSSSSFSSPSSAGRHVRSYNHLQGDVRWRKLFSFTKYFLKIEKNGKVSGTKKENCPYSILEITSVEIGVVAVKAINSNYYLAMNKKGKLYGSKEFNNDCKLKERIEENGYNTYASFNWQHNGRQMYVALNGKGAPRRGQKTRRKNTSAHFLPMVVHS
RUN DESCRIPTION: FGF10 binders on small-molecule microarrays, primary screen, biochemical, small-molecule microarray, 635 nm fluorescence (AID 1102)
MEASUREMENT PARAMETERS: FGF10 binding, fluorescence 635 nm, higher = more signal

{"MOLECULE": "CC(C)(C)OC(=O)CC[C@@]1(C(N)=O)N=C(c2ccc(OCCCO)cc2)O[C@@H]1c1ccccc1", "composite z-score": 0.958}
{"MOLECULE": "O=C1NC(=O)C2C1C=CC(C(O)c1ccccc1)N2Nc1ccc(Cl)cc1Cl (stereo not given)", "composite z-score": 1.14}
{"MOLECULE": "Cc1ccc(S[C@]2(C(=O)NC3CC3)CC(=O)N(C3Cc4ccccc4C3)[C@@H]2c2ccc(CO)cc2)cc1", "composite z-score": -0.451}
{"MOLECULE": "NC(=O)[C@@H]1[C@H]2C(=O)O[C@H](c3ccccc3)[C@H](c3ccccc3)N2[C@H](c2ccc(O)cc2)[C@@]12C(=O)Nc1ccc(C#CC3(O)CCCCCC3)cc12", "composite z-score": -0.177}
{"MOLECULE": "COc1cc2c(cc1O)C(C1CC1)N(Cc1cc3c(cc1Br)OCO3)CC2 (stereo not given)", "composite z-score": -1.02}
{"MOLECULE": "O=C1C2C=CC(C(O)c3ccc(F)cc3)N(Nc3ccccc3F)C2C(=O)N1c1ccccc1 (stereo not given)", "composite z-score": 0.678}
{"MOLECULE": "CN(C)CCCNC(=O)[C@@]1(c2ccc([N+](=O)[O-])cc2)CC(=O)N(C2CCCCC2)[C@@H]1c1ccc(CO)cc1", "composite z-score": -0.105}
{"MOLECULE": "C=C(COC)/C(=C/C[C@H](OC(=O)c1ccncc1)c1ccc(OCCO)cc1)c1cnc2ccccc2c1", "composite z-score": 1.36}
{"MOLECULE": "O=C(NCC(F)(F)F)[C@@H]1c2ccccc2C(=O)N(C2CCCCC2)[C@H]1c1ccc(CO)cc1", "composite z-score": 0.0573}
{"MOLECULE": "CN(C)C(=O)[C@@]1(Cc2ccccc2)N=C(c2ccc(OCCCO)cc2)O[C@H]1c1ccccc1N=[N+]=[N-]", "composite z-score": 1.36}
{"MOLECULE": "CN(C)CCCC[C@@H]1NC(=O)[C@H]2C[C@@H](C(=O)NCCCCCNC(=O)CS)[C@@H](c3cccc(OCCO)c3)N2C1=O", "composite z-score": 0.305}
{"MOLECULE": "COc1ccc(C(=O)Nc2ccc(CN3C(=O)[C@@]4(O[C@@H](CC(=O)N5CCC[C@H]5CO)[C@H]([Si](C)(C)c5ccc(OC)cc5)[C@H]4C)c4ccccc43)cc2)cc1", "composite z-score": 1.38}
{"MOLECULE": "CCOC(=O)[C@H]1C/C=C/C[C@H](C(=O)OCC)C(=O)O[C@H]2[C@@H](OC)O[C@H](CO)[C@@H](OC(=O)Nc3ccc(C#N)cc3)[C@@H]2OC1=O", "composite z-score": 0.322}
{"MOLECULE": "CN1C2C=C(CCCO)C(C3C(=O)N(C(N)=O)C(=O)C32)C1c1ccc(CN2CCCC2)cc1 (stereo not given)", "composite z-score": -0.367}
{"MOLECULE": "CC(C)C[C@@H]1NC(=O)[C@H]2C[C@@H](C(=O)NCCCCCCN)[C@@H](c3ccc(O)cc3)N2C1=O", "composite z-score": 0.23}
